B1: library; numbered along this chain (parent)
chain: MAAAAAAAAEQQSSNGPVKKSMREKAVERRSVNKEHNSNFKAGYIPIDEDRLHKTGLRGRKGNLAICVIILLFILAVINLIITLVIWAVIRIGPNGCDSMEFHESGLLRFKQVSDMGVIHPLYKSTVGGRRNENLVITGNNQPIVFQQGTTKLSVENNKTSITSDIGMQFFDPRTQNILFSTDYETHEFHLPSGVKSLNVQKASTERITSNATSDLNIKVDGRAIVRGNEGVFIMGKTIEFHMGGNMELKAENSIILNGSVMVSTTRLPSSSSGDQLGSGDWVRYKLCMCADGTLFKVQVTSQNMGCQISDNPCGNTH

# Variants of: B1
# protocol-notes: SGCB cell-surface expression functional score (HA stain, bin4 vs bin1, normalised to synonymous) (log10 ratio); higher = more cell-surface SGCB (functional)
Exercise: state measured SGCB cell-surface expression functional score (log10) for each of the variants provided.
API doc: respond with a numeric literal and nothing else, no unit.

Memo: T55C , reported SGCB cell-surface expression functional score (log10): 0.27

Lookup result for L198K ; measured SGCB cell-surface expression functional score (log10): -1.58

Input Y184C . Output SGCB cell-surface expression functional score (log10): -0.8

Value of SGCB cell-surface expression functional score (log10) reported for the variant T126V is -0.28

Sure, the documented SGCB cell-surface expression functional score (log10) for G236H is -1.67

For reference, reported SGCB cell-surface expression functional score (log10) for K54I stands at 0.01

// SGCB cell-surface expression functional score (log10) value for W87A : -0.18

Kindly note the recorded SGCB cell-surface expression functional score (log10) for K25S , which is 0.46

Recorded SGCB cell-surface expression functional score (log10) (variant I208V ): 0.49

Notebook: N316G , SGCB cell-surface expression functional score (log10) read as -0.83

Quick note, SGCB cell-surface expression functional score (log10) for I178P landed at 0.29

Note to self: SGCB cell-surface expression functional score (log10) recorded for T317C was 0.17

What the record says about C97H : SGCB cell-surface expression functional score (log10) is -2.29

Lab book: SGCB cell-surface expression functional score (log10) of L216R noted as -1.93

The reported SGCB cell-surface expression functional score (log10) of the variant T175E was -0.42

get_value(item= K152R , readout=SGCB cell-surface expression functional score (log10)) returns -0.22

Record Y44N . Reported SGCB cell-surface expression functional score (log10): -0.24

The variant listed as I234T has a reported SGCB cell-surface expression functional score (log10) of 0.09

Notebook: G231A , SGCB cell-surface expression functional score (log10) read as -0.01

Short answer for N63L : SGCB cell-surface expression functional score (log10) was 0.03

// recorded SGCB cell-surface expression functional score (log10) for K297V : -0.02

Per the records, this variant ( Q201G ) has SGCB cell-surface expression functional score (log10) equal to 0.18
